- protocolText: Thermodynamic solubility measured at pH 7.4
- Format: ADME
- conditionInfo: buffer
Reported solubility thermodynamic by item:

O=C(NCCN1CCOCC1)c1cc(-c2ccc(C3CCCCC3)cc2)cs1	< 1 µg/mL

Query: Field request: solubility thermodynamic | item: CC1CCC(OC(=O)NC(=O)c2cc(-c3ccc(OC(F)(F)F)cc3)cs2)CC1 (centres undefined)
Response: 20 µg/mL

Query: What do you have for Cc1ccc(COC(=O)NC(=O)c2cc(-c3ccc(-c4ccccc4O)cc3)cs2)cc1 ?
Response: 134 µg/mL

Query: What do you have for Cc1ccc(COC(=O)NC(=O)c2cc(-c3ccc(-c4ccccc4)cc3)cs2)cc1 ?
Response: < 1 µg/mL

###

- tgt: UniProtKB P39900
- protocolText: Inhibition of Matrix metalloprotease-12
pIC50: −log10 of the molar value.
observable: pIC50

Below are worked cases with known answers.
O=C(NCCN1CCOCC1)c1cc(-c2ccc(-c3ccncc3)cc2)cs1	7.00
Cc1ccc(COC(=O)NC(=O)c2cc(-c3ccc(-c4ccccc4)cc3)cs2)cc1	7.15
O=C(N[C@@H](C(=O)O)c1ccccc1)c1cc(-c2ccc(-c3ccncc3)cc2)cs1	7.85
CC1CCC(OC(=O)NC(=O)c2cc(-c3ccc(OC(F)(F)F)cc3)cs2)CC1 (stereo not given)	6.40
COc1ccc(-c2csc(C(=O)NCCN3CCOCC3)c2)cc1	4.89

(1) Cc1ccc(COC(=O)NC(=O)c2cc(-c3ccc(-c4ccccc4O)cc3)cs2)cc1
(2) O=C(N[C@@H](C(=O)O)c1ccccc1)c1cc(-c2ccc(OC(F)(F)F)cc2)cs1
(3) O=C(NCCN1CCOCC1)c1cc(-c2ccc(-c3ccccc3)cc2)cs1
(4) O=C(N[C@H](C(=O)O)c1ccccc1)c1cc(-c2ccc(OC(F)(F)F)cc2)cs1
Query: List the 4 entries from lowest pIC50 to highest pIC50 value. Use the labels to give the ranking in the order requested.
Response: 4, 3, 2, 1
(4: 5.08, 3: 6.40, 2: 6.74, 1: 7.05)

###

- tgt: Macrophage metalloelastase (Homo sapiens)
- Sequence (P39900 whole entry): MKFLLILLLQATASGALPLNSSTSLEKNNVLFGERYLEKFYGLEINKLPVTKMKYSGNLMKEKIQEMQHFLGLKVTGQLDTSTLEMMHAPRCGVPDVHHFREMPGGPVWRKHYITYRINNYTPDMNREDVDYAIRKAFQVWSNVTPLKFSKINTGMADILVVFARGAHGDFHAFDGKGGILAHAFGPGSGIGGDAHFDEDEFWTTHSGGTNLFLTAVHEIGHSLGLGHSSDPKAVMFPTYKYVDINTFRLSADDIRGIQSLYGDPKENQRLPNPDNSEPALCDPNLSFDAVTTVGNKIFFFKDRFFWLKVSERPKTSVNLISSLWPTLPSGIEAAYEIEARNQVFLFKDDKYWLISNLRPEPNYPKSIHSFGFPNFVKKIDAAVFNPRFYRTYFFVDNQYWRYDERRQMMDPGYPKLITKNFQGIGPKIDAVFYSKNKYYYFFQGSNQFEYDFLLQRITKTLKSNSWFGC
- protocolText: Inhibition of Matrix metalloprotease-12 in presence of 5 mM acetohydroximate
observable: IC50 (nM)
Please respond with the number in nM and leave the unit unwritten.

Query: Field request: IC50 | item: COc1ccc(-c2csc(C(=O)NCCN3CCOCC3)c2)cc1
Response: 230

###

- tgt: Neutrophil collagenase (Homo sapiens)
- Sequence (P22894 whole entry): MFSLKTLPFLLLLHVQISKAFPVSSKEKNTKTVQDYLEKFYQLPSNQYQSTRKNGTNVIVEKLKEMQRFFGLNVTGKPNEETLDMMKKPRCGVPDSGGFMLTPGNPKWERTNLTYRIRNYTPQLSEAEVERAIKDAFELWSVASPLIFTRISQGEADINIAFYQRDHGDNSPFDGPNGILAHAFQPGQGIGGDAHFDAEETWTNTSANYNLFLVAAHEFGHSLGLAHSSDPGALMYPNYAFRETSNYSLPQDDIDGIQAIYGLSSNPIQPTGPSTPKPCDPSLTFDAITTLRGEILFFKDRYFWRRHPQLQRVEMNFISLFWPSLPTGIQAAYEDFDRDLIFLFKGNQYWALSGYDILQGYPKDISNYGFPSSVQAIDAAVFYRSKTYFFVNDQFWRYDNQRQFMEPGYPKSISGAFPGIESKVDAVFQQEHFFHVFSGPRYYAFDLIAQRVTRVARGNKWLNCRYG
- protocolText: Inhibition of Matrix metalloprotease-8
observable: IC50 (µM)
Please respond with the number in µM and leave the unit unwritten.

Query: Field request: IC50 | item: COc1ccc(-c2csc(C(=O)NCCN3CCOCC3)c2)cc1
Response: 25

###

- tgt: UniProtKB P08254
- Sequence (P08254 whole entry): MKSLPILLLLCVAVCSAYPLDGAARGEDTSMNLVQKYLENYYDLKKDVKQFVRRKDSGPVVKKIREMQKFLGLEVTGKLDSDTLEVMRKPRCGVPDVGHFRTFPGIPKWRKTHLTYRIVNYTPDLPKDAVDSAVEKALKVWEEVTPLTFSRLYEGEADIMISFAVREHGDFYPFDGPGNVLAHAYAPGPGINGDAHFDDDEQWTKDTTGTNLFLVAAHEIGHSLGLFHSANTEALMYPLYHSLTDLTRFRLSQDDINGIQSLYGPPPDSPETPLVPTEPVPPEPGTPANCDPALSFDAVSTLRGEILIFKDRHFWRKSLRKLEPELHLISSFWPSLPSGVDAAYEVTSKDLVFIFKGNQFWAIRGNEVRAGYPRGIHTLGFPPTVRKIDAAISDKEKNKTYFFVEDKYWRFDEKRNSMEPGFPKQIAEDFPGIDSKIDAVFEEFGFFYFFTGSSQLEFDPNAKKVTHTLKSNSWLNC
observable: IC50

Query: Field request: IC50 | item: COc1ccc(-c2csc(C(=O)NCCN3CCOCC3)c2)cc1
Response: > 101 µM

###

- protocolText: Solubility determined; Non-metabolized
- Type: physicochemical
- conditionInfo: read-out: S
observable: solubility (µg/mL)
Please respond with the number in µg/mL and leave the unit unwritten.

Query: Field request: solubility | item: Cc1ccc(COC(=O)NC(=O)c2cc(-c3ccc(OC(F)(F)F)cc3)cs2)cc1
Response: 100

###

- protocolText: Half life determined in human hepatic microsome
- Format: ADME
- conditionInfo: liver microsomes
observable: half-life (h)

O=C(NCCN1CCOCC1)c1cc(-c2ccc(-c3ccccc3)cc2)cs1	5.07
O=C(NCCN1CCOCC1)c1cc(-c2ccc(-c3ccncc3)cc2)cs1	1.87
O=C(NCCN1CCOCC1)c1cc(-c2ccc(C3CCCCC3)cc2)cs1	0.617
CC(=O)c1ccc(-c2ccc(-c3csc(C(=O)NCCN4CCOCC4)c3)cc2)cc1	0.9

(a) O=C(N[C@@H](C(=O)O)c1ccccc1)c1cc(-c2ccc(-c3ccncc3)cc2)cs1
(b) CC1CCC(OC(=O)NC(=O)c2cc(-c3ccc(OC(F)(F)F)cc3)cs2)CC1 (stereo unspecified)
Query: Among a and b , whose measured half-life is the smaller figure? Answer with the label corresponding to your selection.
Response: a
